Molecular target: PDGFRβ (purified cytoplasmic domain PDGFR-b protein) (Homo sapiens (Human), UniProt P09619)
Sequence (P09619 554-1106): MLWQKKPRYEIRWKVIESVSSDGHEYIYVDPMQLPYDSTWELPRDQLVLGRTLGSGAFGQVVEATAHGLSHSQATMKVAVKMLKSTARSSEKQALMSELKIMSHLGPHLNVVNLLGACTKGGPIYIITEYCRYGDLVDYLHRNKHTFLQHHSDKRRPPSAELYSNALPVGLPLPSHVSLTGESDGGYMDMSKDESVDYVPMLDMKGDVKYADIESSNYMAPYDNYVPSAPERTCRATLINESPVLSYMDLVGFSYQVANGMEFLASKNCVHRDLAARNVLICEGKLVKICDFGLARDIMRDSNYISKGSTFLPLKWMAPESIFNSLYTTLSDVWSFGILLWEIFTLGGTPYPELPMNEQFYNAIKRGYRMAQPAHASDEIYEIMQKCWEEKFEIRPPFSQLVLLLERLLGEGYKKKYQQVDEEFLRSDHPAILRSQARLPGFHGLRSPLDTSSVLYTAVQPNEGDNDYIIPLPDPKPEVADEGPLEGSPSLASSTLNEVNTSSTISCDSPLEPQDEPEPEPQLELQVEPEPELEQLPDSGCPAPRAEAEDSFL
Assay: PDGFRβ Kinase Assay (biochemical, ELISA)
Conditions: 36 μM ATP, 60 minute incubation at 30° C.; read-out: PDGFRβ Enzyme Assay (IC50 nM)
Reported IC50 values for the following molecules.

smiles-string | unit-abbreviation | relational-operator | IC50
Cc1cccc(NC(=O)Nc2ccc(-c3nsc(NC(=O)NCCCN4CCOCC4)c3C(N)=O)cc2)c1 | nM | = | 10
NC(=O)c1c(-c2cccc(NC(=O)c3cccc(C(F)(F)F)c3)c2)nsc1N | nM | = | 844
Cc1ccc(NC(=O)Nc2ccc(-c3nsc(N)c3C(N)=O)cc2)cc1 | nM | = | 60
NC(=O)c1c(-c2ccc([N+](=O)[O-])cc2)nsc1NC(=O)NCCCN1CCOCC1 | nM | > | 10000
NC(=O)c1c(-c2ccc(NC(=O)Nc3ccccc3)cc2)nsc1NC(=O)NCCCN1CCOCC1 | nM | = | 21
Cc1ccc(F)c(NC(=O)Nc2ccc(-c3nsc(NC(=O)NCCCN4CCOCC4)c3C(N)=O)cc2)c1 | nM | = | 47
Cc1ccc(F)c(NC(=O)Nc2ccc(-c3snc(NCCCN4CCOCC4)c3C(N)=O)cc2)c1 | nM | = | 70
NC(=O)c1c(-c2ccc(N)cc2)nsc1NC(=O)NCCCN1CCOCC1 | nM | > | 10000
NC(=O)c1c(-c2ccc(NC(=O)Nc3cc(C(F)(F)F)ccc3F)cc2)nsc1NC(=O)NCCCN1CCOCC1 | nM | = | 24
Cc1ccc(NC(=O)Nc2ccc(-c3nsc(NC(=O)NCCCO)c3C(N)=O)cc2)cc1 | nM | = | 13
NC(=O)c1c(-c2cccc(NC(=O)Nc3ccccc3)c2)nsc1N | nM | > | 1000
Cc1ccc(F)c(NC(=O)Nc2ccc(-c3snc(N)c3C(N)=O)cc2)c1 | nM | = | 48
Cc1ccc(NC(=O)Nc2ccc(-c3nsc(NC(=O)NCCCN4CCOCC4)c3C(N)=O)cc2)cc1 | nM | = | 12
Cc1ccc(F)c(NC(=O)Nc2ccc(-c3nsc(N)c3C(N)=O)cc2)c1 | nM | = | 70

---

Molecular target: VEGFR1 (Homo sapiens (Human), UniProt P17948)
Sequence (P17948 27-1338, species assumed): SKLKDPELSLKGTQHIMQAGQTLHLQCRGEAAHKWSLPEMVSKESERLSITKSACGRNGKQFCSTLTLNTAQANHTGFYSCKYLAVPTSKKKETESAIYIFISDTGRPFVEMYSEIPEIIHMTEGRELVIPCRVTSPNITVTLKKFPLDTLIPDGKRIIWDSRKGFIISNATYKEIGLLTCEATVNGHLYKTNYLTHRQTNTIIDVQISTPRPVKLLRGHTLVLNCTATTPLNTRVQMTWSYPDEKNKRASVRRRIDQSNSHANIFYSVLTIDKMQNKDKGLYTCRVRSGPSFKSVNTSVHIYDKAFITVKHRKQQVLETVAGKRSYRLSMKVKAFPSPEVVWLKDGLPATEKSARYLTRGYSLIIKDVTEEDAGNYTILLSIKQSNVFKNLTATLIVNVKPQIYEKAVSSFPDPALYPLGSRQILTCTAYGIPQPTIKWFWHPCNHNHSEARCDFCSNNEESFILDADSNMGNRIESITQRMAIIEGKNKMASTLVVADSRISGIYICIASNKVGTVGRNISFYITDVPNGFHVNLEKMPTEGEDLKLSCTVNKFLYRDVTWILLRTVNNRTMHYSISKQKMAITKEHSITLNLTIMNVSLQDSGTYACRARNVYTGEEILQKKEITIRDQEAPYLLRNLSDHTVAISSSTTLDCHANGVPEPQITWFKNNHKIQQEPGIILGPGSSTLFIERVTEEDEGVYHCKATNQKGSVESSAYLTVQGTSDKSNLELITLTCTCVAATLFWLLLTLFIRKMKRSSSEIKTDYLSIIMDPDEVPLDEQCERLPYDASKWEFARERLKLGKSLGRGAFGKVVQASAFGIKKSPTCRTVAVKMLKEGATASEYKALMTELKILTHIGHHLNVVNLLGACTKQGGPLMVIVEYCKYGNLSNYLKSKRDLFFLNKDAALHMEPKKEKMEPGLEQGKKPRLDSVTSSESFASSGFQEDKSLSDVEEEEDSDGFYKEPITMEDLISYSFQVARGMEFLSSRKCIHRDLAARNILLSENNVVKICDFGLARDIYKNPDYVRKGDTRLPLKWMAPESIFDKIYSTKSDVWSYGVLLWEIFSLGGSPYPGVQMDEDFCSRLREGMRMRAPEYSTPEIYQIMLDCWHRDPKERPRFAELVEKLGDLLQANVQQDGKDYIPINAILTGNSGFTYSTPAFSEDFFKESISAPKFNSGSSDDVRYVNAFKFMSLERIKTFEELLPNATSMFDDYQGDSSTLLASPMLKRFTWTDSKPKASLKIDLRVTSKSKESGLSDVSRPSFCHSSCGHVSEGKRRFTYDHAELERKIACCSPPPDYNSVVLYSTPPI
Experiment: VEGFR1 Enzyme Assay
Type: biochemical
Entries and their IC50

smiles-string | IC50
NC(=O)c1c(-c2ccc(NC(=O)c3cccc(C(F)(F)F)c3)cc2)nsc1NC(=O)NCCCN1CCOCC1 | > 1000 nM
COCCCNC(=O)Nc1snc(-c2ccc(N)cc2)c1C(N)=O | > 1000 nM
NC(=O)c1c(-c2ccc([N+](=O)[O-])cc2)nsc1NC(=O)NCCCN1CCOCC1 | > 10000 nM
